measureName: logP
API doc: respond with a numeric literal and nothing else, no unit.

Here are 2 compounds together with their reported answers.
{"compoundStructure": "CC1=CCC(=C(C)C)CC1", "logP": 4.24}
{"compoundStructure": "CC(C)=CCC/C(C)=C/CO", "logP": 3.56}

Proceeding to the next compound to report its logP.
stdin: Reported logP for `CC(=O)/C=C/[C@H]1C(C)=CCCC1(C)C` : what is it?
stdout: 3.85

* * *

Binary classification by logP, with 3 as an inclusive lower bound for rule met; all other cases are rule not met.

Example entries and their recorded answers appear below.
{"compound": "CC1=CC2C(CC1)C2(C)C (stereo unspecified)", "group": "rule met"}
{"compound": "CC1=CCC2C(C1)C2(C)C (stereo unspecified)", "group": "rule met"}
{"compound": "CC(=O)C=CC1=C(C)CCCC1(C)C", "group": "rule met"}
{"compound": "C=C(C)[C@@H]1CC=C(CO)CC1", "group": "rule met"}
{"compound": "CC(=O)OC/C=C(\\C)CCC=C(C)C", "group": "rule met"}
{"compound": "CC(C)=CCC[C@@H](C)CC=O", "group": "rule met"}

stdin: Determine whether measured logP meets or exceeds 3 for `CC1=CC=C(C(C)C)CC1`
stdout: rule met

stdin: How about `CC1=C[C@H](O)[C@H]2C[C@@H]1C2(C)C` ?
stdout: rule met

stdin: How about C=CC(C)(CCC=C(C)C)OC(C)=O (stereo unspecified) ?
stdout: rule met

stdin: How about C=CC1(C)CCC(C(C)(C)O)O1 (stereo unspecified) ?
stdout: rule not met

stdin: How about `C=C(C)[C@@H]1CC=C(C=O)CC1` ?
stdout: rule met
